Value source: patent US20250122304A1

- Subject Of Test: T1, human FAP (Homo sapiens, UniProt Q12884)
- T1 sequence (Q12884 1-760): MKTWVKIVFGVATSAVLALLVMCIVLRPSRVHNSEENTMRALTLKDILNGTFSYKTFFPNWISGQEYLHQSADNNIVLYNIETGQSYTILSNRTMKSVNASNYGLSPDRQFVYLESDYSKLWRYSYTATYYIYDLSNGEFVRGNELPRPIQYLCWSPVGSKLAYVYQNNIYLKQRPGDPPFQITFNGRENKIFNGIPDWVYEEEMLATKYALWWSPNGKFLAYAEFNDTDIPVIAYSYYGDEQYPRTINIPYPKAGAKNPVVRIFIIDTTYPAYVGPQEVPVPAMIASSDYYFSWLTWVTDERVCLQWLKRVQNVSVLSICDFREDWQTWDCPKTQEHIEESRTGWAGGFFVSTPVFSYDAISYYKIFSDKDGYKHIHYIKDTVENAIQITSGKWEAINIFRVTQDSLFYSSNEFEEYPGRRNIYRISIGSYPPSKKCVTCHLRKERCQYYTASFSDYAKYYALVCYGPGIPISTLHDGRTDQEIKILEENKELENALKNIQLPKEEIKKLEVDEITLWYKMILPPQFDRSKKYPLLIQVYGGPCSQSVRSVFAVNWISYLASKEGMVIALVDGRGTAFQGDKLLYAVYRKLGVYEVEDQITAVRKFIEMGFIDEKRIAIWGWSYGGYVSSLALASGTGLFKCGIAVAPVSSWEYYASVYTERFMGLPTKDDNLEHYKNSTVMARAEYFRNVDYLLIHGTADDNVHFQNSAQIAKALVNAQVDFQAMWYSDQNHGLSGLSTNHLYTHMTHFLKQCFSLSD
- Test Method Notes: BLI (Octet) binding kinetics pre- and post-TCO conjugation (Example 7, Table 17)
- Condition Parameters: Post conjugation (TCO)
Measure Name: kon (M⁻¹ s⁻¹)
Give bare numbers, in M⁻¹ s⁻¹.

# Molecule, kon [M⁻¹ s⁻¹]
records = [
    ("VHH7: VHH, target FAP, SEQ ID NO 90 (protein) VHH: QVQLQESGGGLVQAGGSLRLSCTASGTFSGRNAMAWYRQAPGKRRELVAGIRSDDSTNYVDSVKGRFTISRDNAKNTVYLQMNSLRPEDTAVYYCNLWPPVIGAGFGSWGQGTQVTVSSAAAYPYDVPDYGSHHHHHH", 746000),
]

We now examine a further molecule.
**Query** Quick check: kon of VHH8: VHH, target FAP, SEQ ID NO 91 (protein) VHH: QVQLQESGGGTVQPGGSLRLSCAASGISVSIASMAWYRQAPGKQRELVAGIISGGSTNYADSVKGRFTISRDNAKKVVLLQMNSLKPEDTAVYYCNTYPPFVGPGATATWGQGTQVTVSSAAAYPYDVPDYGSHHHHHH ?
**Result** 833000
